Molecular target: Human immunodeficiency virus type 1 integrase (Human immunodeficiency virus 1)
Experiment: Inhibition of HIV1 integrase 3'-processing activity in presence of magnesium
Readings of IC50 for the listed molecules
MEASURED ENDPOINT: IC50 (µM)

MOL SMILES: O=C1c2ccc(O)c(O)c2C(=O)N1Cc1cccc(Cl)c1
READOUT UNITS: µM
INEQUALITY OPERATOR: =
OBSERVED RESULT: 14

MOL SMILES: O=C1c2ccc(O)c(O)c2C(=O)N1Cc1ccc(F)c(F)c1F
READOUT UNITS: µM
INEQUALITY OPERATOR: =
OBSERVED RESULT: 18

MOL SMILES: O=C1c2c(ccc(O)c2O)CN1Cc1cc(Cl)ccc1F
READOUT UNITS: µM
INEQUALITY OPERATOR: =
OBSERVED RESULT: 18

MOL SMILES: O=C1c2c(ccc(O)c2O)CN1Cc1cccc(F)c1
READOUT UNITS: µM
INEQUALITY OPERATOR: =
OBSERVED RESULT: 238

MOL SMILES: Cc1cc(CN2Cc3ccc(O)c(O)c3C2=O)ccc1F
READOUT UNITS: µM
INEQUALITY OPERATOR: =
OBSERVED RESULT: 17

MOL SMILES: O=C1c2c(ccc(O)c2O)CN1Cc1ccc(F)c(F)c1
READOUT UNITS: µM
INEQUALITY OPERATOR: =
OBSERVED RESULT: 72

MOL SMILES: O=C1c2c(ccc(O)c2O)CN1Cc1cccc(Cl)c1
READOUT UNITS: µM
INEQUALITY OPERATOR: =
OBSERVED RESULT: 72

MOL SMILES: O=C1c2c(ccc(O)c2O)CN1Cc1cc(F)c(F)cc1F
READOUT UNITS: µM
INEQUALITY OPERATOR: >
OBSERVED RESULT: 333

MOL SMILES: O=C1c2ccc(O)c(O)c2C(=O)N1Cc1cccc(Cl)c1F
READOUT UNITS: µM
INEQUALITY OPERATOR: =
OBSERVED RESULT: 25

MOL SMILES: O=C1c2ccc(O)c(O)c2C(=O)N1Cc1c(F)c(F)c(F)c(F)c1F
READOUT UNITS: µM
INEQUALITY OPERATOR: =
OBSERVED RESULT: 41

MOL SMILES: O=C1c2ccc(O)c(O)c2C(=O)N1Cc1c(F)ccc(F)c1Cl
READOUT UNITS: µM
INEQUALITY OPERATOR: =
OBSERVED RESULT: 34

MOL SMILES: O=C1c2c(ccc(O)c2O)CN1Cc1c(F)c(F)c(F)c(F)c1F
READOUT UNITS: µM
INEQUALITY OPERATOR: =
OBSERVED RESULT: 230

MOL SMILES: O=C1c2c(ccc(O)c2O)CN1Cc1cccc(I)c1
READOUT UNITS: µM
INEQUALITY OPERATOR: =
OBSERVED RESULT: 169

MOL SMILES: O=C1c2c(ccc(O)c2O)CN1Cc1ccc(F)cc1Cl
READOUT UNITS: µM
INEQUALITY OPERATOR: >
OBSERVED RESULT: 333

MOL SMILES: O=C1c2ccc(O)c(O)c2C(=O)N1Cc1cccc(F)c1
READOUT UNITS: µM
INEQUALITY OPERATOR: =
OBSERVED RESULT: 11

MOL SMILES: O=C1c2ccc(O)c(O)c2C(=O)N1Cc1cc(Cl)ccc1F
READOUT UNITS: µM
INEQUALITY OPERATOR: =
OBSERVED RESULT: 9

MOL SMILES: O=C1c2ccc(O)c(O)c2C(=O)N1Cc1cc(Cl)c(F)cc1F
READOUT UNITS: µM
INEQUALITY OPERATOR: =
OBSERVED RESULT: 79

MOL SMILES: O=C1c2c(ccc(O)c2O)CN1Cc1c(F)ccc(F)c1F
READOUT UNITS: µM
INEQUALITY OPERATOR: >
OBSERVED RESULT: 333

MOL SMILES: O=C1c2c(ccc(O)c2O)CN1Cc1cc(F)ccc1F
READOUT UNITS: µM
INEQUALITY OPERATOR: >
OBSERVED RESULT: 333

MOL SMILES: O=C1c2c(ccc(O)c2O)CN1Cc1c(F)ccc(F)c1Cl
READOUT UNITS: µM
INEQUALITY OPERATOR: >
OBSERVED RESULT: 333

MOL SMILES: O=C1c2ccc(O)c(O)c2C(=O)N1Cc1ccc(F)c(Cl)c1
READOUT UNITS: µM
INEQUALITY OPERATOR: =
OBSERVED RESULT: 14

MOL SMILES: O=C1c2c(ccc(O)c2O)CN1Cc1ccc(Cl)c(F)c1
READOUT UNITS: µM
INEQUALITY OPERATOR: =
OBSERVED RESULT: 97

* * *

Molecular target: Human immunodeficiency virus type 1 integrase (Human immunodeficiency virus 1)
Assay: Inhibition of HIV1 integrase strand transfer activity in presence of magnesium
pIC50: −log10 of the molar value.
pIC50 values for the compounds below.
MEASURED ENDPOINT: pIC50

MOL SMILES: O=C1c2ccc(O)c(O)c2C(=O)N1Cc1cccc(F)c1
OBSERVED RESULT: 6.52
--
MOL SMILES: O=C1c2ccc(O)c(O)c2C(=O)N1Cc1ccc(F)cc1F
OBSERVED RESULT: 6.52
--
MOL SMILES: O=C1c2ccc(O)c(O)c2C(=O)N1Cc1c(F)cccc1F
OBSERVED RESULT: 5.70
--
MOL SMILES: O=C1c2c(ccc(O)c2O)CN1Cc1c(F)cccc1Cl
OBSERVED RESULT: 4.74

* * *

Molecular target: Human immunodeficiency virus type 1 integrase (Human immunodeficiency virus 1, UniProt Q7ZJM1)
Sequence (Q7ZJM1 whole entry): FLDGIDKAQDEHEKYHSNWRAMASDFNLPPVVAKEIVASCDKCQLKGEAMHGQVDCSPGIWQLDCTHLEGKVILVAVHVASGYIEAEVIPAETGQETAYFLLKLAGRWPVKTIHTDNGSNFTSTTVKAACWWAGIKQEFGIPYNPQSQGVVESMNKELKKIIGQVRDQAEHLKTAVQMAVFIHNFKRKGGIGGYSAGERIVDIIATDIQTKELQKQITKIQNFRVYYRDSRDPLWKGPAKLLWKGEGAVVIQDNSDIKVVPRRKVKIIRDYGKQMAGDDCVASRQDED
Assay: Inhibition of HIV1 integrase strand transfer activity in presence of magnesium
pIC50: −log10 of the molar value.

MOL SMILES: O=C1c2ccc(O)c(O)c2C(=O)N1Cc1cccc(I)c1
pIC50: 6.00

MOL SMILES: O=C1c2c(ccc(O)c2O)CN1Cc1ccc(F)c(F)c1
pIC50: 6.05

MOL SMILES: O=C1c2ccc(O)c(O)c2C(=O)N1Cc1ccc(F)cc1Cl
pIC50: 5.89

MOL SMILES: O=C1c2ccc(O)c(O)c2C(=O)N1Cc1cc(F)cc(F)c1
pIC50: 6.40

MOL SMILES: O=C1c2ccc(O)c(O)c2C(=O)N1Cc1ccccc1
pIC50: 6.40

MOL SMILES: O=C1c2ccc(O)c(O)c2C(=O)N1Cc1cc(Cl)ccc1F
pIC50: 6.51

MOL SMILES: O=C1c2c(ccc(O)c2O)CN1Cc1cc(F)c(F)c(F)c1
pIC50: 5.40

MOL SMILES: Cc1cc(CN2C(=O)c3ccc(O)c(O)c3C2=O)ccc1F
pIC50: 6.10

MOL SMILES: O=C1c2c(ccc(O)c2O)CN1Cc1c(F)ccc(F)c1Cl
pIC50: 5.05

MOL SMILES: O=C1c2ccc(O)c(O)c2C(=O)N1Cc1ccc(F)c(F)c1
pIC50: 7.00
